- target: T1, human TfR extracellular domain with N-terminal His tag (human, UniProt P02786 89-760)
- T1 construct: Biotinylated in some assays; also called huTfR; HuTfR
- T1 sequence (P02786 89-760 G142S): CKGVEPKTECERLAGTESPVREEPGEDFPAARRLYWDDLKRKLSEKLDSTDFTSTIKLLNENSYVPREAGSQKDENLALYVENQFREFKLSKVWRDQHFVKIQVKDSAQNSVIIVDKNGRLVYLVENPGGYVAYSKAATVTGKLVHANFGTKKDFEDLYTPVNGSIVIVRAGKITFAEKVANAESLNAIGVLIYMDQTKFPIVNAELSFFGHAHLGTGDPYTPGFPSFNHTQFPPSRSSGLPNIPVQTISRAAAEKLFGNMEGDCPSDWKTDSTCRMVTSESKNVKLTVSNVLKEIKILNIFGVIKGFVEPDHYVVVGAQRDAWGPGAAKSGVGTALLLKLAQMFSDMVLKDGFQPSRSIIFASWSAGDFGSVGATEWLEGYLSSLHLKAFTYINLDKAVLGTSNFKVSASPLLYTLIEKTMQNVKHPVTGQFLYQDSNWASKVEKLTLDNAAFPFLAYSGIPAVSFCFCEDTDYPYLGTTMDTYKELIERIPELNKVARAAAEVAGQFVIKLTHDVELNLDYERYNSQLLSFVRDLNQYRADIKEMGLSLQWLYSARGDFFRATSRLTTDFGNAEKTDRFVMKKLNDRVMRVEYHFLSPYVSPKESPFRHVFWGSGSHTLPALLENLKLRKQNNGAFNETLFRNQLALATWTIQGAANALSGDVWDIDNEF
- experiment-notes: ELISA, IgG;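 note: ELISA of IgG-containing supernatants tested in 1:5 serial dilutions for 1 h, bound antibody read out with HRP anti-kappa antibody and TMB substrate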
attribute-measured: EC50 (µg/mL)
Give just the number in µg/mL; leave the unit off.

Examples with answers:
[[record]]
binder = "P96A (antibody, V domains shown, also called 7A4.v15 P96A (CDR-L3) IgG) VH: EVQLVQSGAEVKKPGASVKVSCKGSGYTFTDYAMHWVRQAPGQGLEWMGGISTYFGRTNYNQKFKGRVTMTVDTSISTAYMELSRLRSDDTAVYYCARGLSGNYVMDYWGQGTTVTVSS VL: DIVMTQSPDSLAVSLGERATINCRASESVDSYGNSFMHWYQQKPGQPPKLLIYRASNLESGVPDRFSGSGSRTDFTLTISSLQAEDVAVYYCQQSNEAPATFGQGTKLEIK"
unit_text = "µg/mL"
experimental_result = 0.01

[[record]]
binder = "E93A (antibody, V domains shown, also called 7A4.v15 E93A (CDR-L3) IgG) VH: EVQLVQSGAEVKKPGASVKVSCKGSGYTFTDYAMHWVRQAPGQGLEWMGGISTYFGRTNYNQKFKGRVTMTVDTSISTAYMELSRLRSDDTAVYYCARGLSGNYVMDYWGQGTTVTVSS VL: DIVMTQSPDSLAVSLGERATINCRASESVDSYGNSFMHWYQQKPGQPPKLLIYRASNLESGVPDRFSGSGSRTDFTLTISSLQAEDVAVYYCQQSNAAPPTFGQGTKLEIK"
unit_text = "µg/mL"
experimental_result = 0.0122

[[record]]
binder = "P95A (antibody, V domains shown, also called 7A4.v15 P95A (CDR-L3) IgG) VH: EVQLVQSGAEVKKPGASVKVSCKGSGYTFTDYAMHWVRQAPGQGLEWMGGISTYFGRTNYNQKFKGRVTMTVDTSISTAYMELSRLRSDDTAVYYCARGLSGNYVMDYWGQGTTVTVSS VL: DIVMTQSPDSLAVSLGERATINCRASESVDSYGNSFMHWYQQKPGQPPKLLIYRASNLESGVPDRFSGSGSRTDFTLTISSLQAEDVAVYYCQQSNEAAPTFGQGTKLEIK"
unit_text = "µg/mL"
experimental_result = 0.0097


The measured EC50 associated with N92A (antibody, V domains shown, also called 7A4.v15 N92A (CDR-L3) IgG) VH: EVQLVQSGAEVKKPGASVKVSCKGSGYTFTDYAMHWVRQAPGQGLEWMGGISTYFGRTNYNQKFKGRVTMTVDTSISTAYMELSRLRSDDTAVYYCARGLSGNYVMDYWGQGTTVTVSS VL: DIVMTQSPDSLAVSLGERATINCRASESVDSYGNSFMHWYQQKPGQPPKLLIYRASNLESGVPDRFSGSGSRTDFTLTISSLQAEDVAVYYCQQSAEAPPTFGQGTKLEIK reads 0.0087

The measured EC50 associated with D101A (antibody, V domains shown, also called 7A4.v15 D101A (CDR-H3) IgG; copies: 2 + 2) VH: EVQLVQSGAEVKKPGASVKVSCKGSGYTFTDYAMHWVRQAPGQGLEWMGGISTYFGRTNYNQKFKGRVTMTVDTSISTAYMELSRLRSDDTAVYYCARGLSGNYVMAYWGQGTTVTVSS VL: DIVMTQSPDSLAVSLGERATINCRASESVDSYGNSFMHWYQQKPGQPPKLLIYRASNLESGVPDRFSGSGSRTDFTLTISSLQAEDVAVYYCQQSNEAPPTFGQGTKLEIK reads 0.0173
